Test system: Spinacia oleracea
Test: In vitro inhibition of basal rate of photosynthetic electron transport (Hill reaction) in active intact chloroplast thylakoid membrane of Spinacia oleracea (spinach) leaves assessed as light-driven ferricyanide reduction at 5 uM measured at 24 degC at 30 secs intervals for 10 min (reference value: 100 +/-3.1%)
Parameters: scale not given: the % may be the effect or the level left
MEASURED_ATTRIBUTE: Activity (%)

a. COc1ccc(OC)c(/C=C2\C=C(Cc3ccc(Br)cc3)C(=O)O2)c1
b. O=C1OC(=Cc2ccccc2)C=C1Cc1ccc(Br)cc1
c. CN(C)C(=O)Nc1ccc(Cl)c(Cl)c1
input: Sort these compounds on Activity so the largest reading comes first. Labels, requested order.
output: a, b, c

====

Test system: Spinacia oleracea
Test: In vitro inhibition of basal rate of photosynthetic electron transport (Hill reaction) in active intact chloroplast thylakoid membrane of Spinacia oleracea (spinach) leaves assessed as light-driven ferricyanide reduction at 10 uM measured at 24 degC at 30 secs intervals for 10 min (reference value: 100 +/-3.1%)
Set-up: scale not given: the % may be the effect or the level left
MEASURED_ATTRIBUTE: Activity (%)

I. O=C1O/C(=C\c2ccc3c(c2)OCO3)C=C1Cc1ccc(Br)cc1
II. O=C1OC(=Cc2ccccc2)C=C1Cc1ccc(Br)cc1
III. CN(C)C(=O)Nc1ccc(Cl)c(Cl)c1
input: Sort these compounds on Activity so the largest reading comes first. Labels, requested order.
output: I, II, III

====

Tested on: Spinacia oleracea
Experiment: In vitro inhibition of basal rate of photosynthetic electron transport (Hill reaction) in active intact chloroplast thylakoid membrane of Spinacia oleracea (spinach) leaves assessed as light-driven ferricyanide reduction at 10 uM measured at 24 degC at 30 secs intervals for 10 min (reference value: 100 +/-3.1%)
Parameters: scale not given: the % may be the effect or the level left
MEASURED_ATTRIBUTE: Activity (%)

Use these answered entries as a reference point.
| RECORD_SMILES | MEASURED_ATTRIBUTE | MEASURED_NUMBER |
| --- | --- | --- |
| COc1ccc(OC)c(/C=C2\C=C(Cc3ccc(Br)cc3)C(=O)O2)c1 | Activity | 71 |
| CN(C)c1ccc(C=C2C=C(Cc3ccc(Br)cc3)C(=O)O2)c(Cl)c1 | Activity | 91 |
| O=C1OC(=Cc2ccc(F)cc2)C=C1Cc1ccc(Br)cc1 | Activity | 68.5 |

I. Cc1cccc(/C=C2\C=C(Cc3ccc(Br)cc3)C(=O)O2)c1
II. N#Cc1ccc(C=C2C=C(Cc3ccc(Br)cc3)C(=O)O2)cc1
input: Hello, I am sorting some records. Could you say if I or II has the smaller Activity value? Lab log: write the label of the selected item as the result.
output: I

P. O=C1OC(=Cc2ccc(C(F)(F)F)cc2)C=C1Cc1ccc(Br)cc1
Q. COc1cc(OC)c(/C=C2\C=C(Cc3ccc(Br)cc3)C(=O)O2)c(OC)c1
input: Lab notebook, comparison: P versus Q , higher Activity goes to which? Lab log: write the label of the selected item as the result.
output: Q

====

Test system: Spinacia oleracea
Assay: In vitro inhibition of basal rate of photosynthetic electron transport (Hill reaction) in active intact chloroplast thylakoid membrane of Spinacia oleracea (spinach) leaves assessed as light-driven ferricyanide reduction at 5 uM measured at 24 degC at 30 secs intervals for 10 min (reference value: 100 +/-3.1%)
Parameters: scale not given: the % may be the effect or the level left
MEASURED_ATTRIBUTE: Activity (%)

| RECORD_SMILES | Activity, % |
| --- | --- |
| CN(C)c1ccc(C=C2C=C(Cc3ccc(Br)cc3)C(=O)O2)c(Cl)c1 | 94.7 |
| O=C1OC(=Cc2ccc(Cl)cc2)C=C1Cc1ccc(Br)cc1 | 94.1 |
| O=C1OC(=Cc2ccc(Br)cc2)C=C1Cc1ccc(Br)cc1 | 95.4 |
| O=C1OC(=Cc2ccc(F)cc2)C=C1Cc1ccc(Br)cc1 | 74 |
| COc1cc(OC)c(/C=C2\C=C(Cc3ccc(Br)cc3)C(=O)O2)c(OC)c1 | 84.2 |
| O=C1OC(=Cc2cccc([N+](=O)[O-])c2)C=C1Cc1ccc(Br)cc1 | 72.6 |
| O=C1O/C(=C\c2ccc3c(c2)OCO3)C=C1Cc1ccc(Br)cc1 | 91.1 |
| O=C1OC(=Cc2ccc(C(F)(F)F)cc2)C=C1Cc1ccc(Br)cc1 | 71.7 |
| N#Cc1ccc(C=C2C=C(Cc3ccc(Br)cc3)C(=O)O2)cc1 | 100 |
| Cc1cccc(/C=C2\C=C(Cc3ccc(Br)cc3)C(=O)O2)c1 | 72.8 |
